- Tested on: L6
- experiment summary: Inhibition of cholesterol synthesis in rat L6 myocyte
- Format: functional, cell-based
outcome measure: IC50 (nM)
Entry rule: numbers only, all in nM.

INPUT: # input molecule: CC(C)c1c(S(=O)(=O)N2CCOCC2)c(-c2ccccc2)c(-c2ccc(F)cc2)n1CC[C@@H](O)C[C@@H](O)CC(=O)[O-].[Na+] ; wanted: its IC50
OUTPUT: 10000

INPUT: # input molecule: CC(C)c1c(S(=O)(=O)N(C)C)c(-c2ccccc2)c(-c2ccc(F)cc2)n1CC[C@@H](O)C[C@@H](O)CC(=O)[O-].[Na+] ; wanted: its IC50
OUTPUT: 1380

INPUT: # input molecule: CC(C)c1c(S(=O)(=O)Nc2cccc(CC(N)=O)c2)c(-c2ccc(F)cc2)c(-c2ccc(F)cc2)n1CC[C@@H](O)C[C@@H](O)CC(=O)[O-].[Na+] ; wanted: its IC50
OUTPUT: 10000

INPUT: # input molecule: CC(C)c1c(S(=O)(=O)N2CCSCC2)c(-c2ccc(F)cc2)c(-c2ccc(F)cc2)n1CC[C@@H](O)C[C@@H](O)CC(=O)[O-].[Na+] ; wanted: its IC50
OUTPUT: 5700

INPUT: # input molecule: CC(C)c1c(S(=O)(=O)N2CCc3ccccc3C2)c(-c2ccc(F)cc2)c(-c2ccc(F)cc2)n1CC[C@@H](O)C[C@@H](O)CC(=O)[O-].[Na+] ; wanted: its IC50
OUTPUT: 2500

INPUT: # input molecule: CC(C)c1c(S(=O)(=O)Nc2ccc(C(N)=O)cc2)c(-c2ccc(F)cc2)c(-c2ccc(F)cc2)n1CC[C@@H](O)C[C@@H](O)CC(=O)[O-].[Na+] ; wanted: its IC50
OUTPUT: 2340

INPUT: # input molecule: CC(C)c1c(S(=O)(=O)NCc2ccccc2)c(-c2ccc(F)cc2)c(-c2ccc(F)cc2)n1CC[C@@H](O)C[C@@H](O)CC(=O)[O-].[Na+] ; wanted: its IC50
OUTPUT: 2200

====

- System: L6
- experiment summary: Inhibition of cholesterol synthesis in rat L6 myocyte
- Type: functional, cell-based
outcome measure: IC50

Answered examples (5):
structure smiles: COCc1c(C(C)C)nc(C(C)C)c(/C=C/[C@@H](O)C[C@@H](O)CC(=O)O)c1-c1ccc(F)cc1
IC50: 7 nM
//
structure smiles: CC(C)c1c(S(=O)(=O)Nc2cccc(C(N)=O)c2)c(-c2ccc(F)cc2)c(-c2ccc(F)cc2)n1CC[C@@H](O)C[C@@H](O)CC(=O)[O-].[Na+]
IC50: 36000 nM
//
structure smiles: CC(C)c1c(C(=O)Nc2ccccc2)c(-c2ccccc2)c(-c2ccc(F)cc2)n1CC[C@@H](O)C[C@@H](O)CC(=O)O
IC50: 142 nM
//
structure smiles: CC(C)c1c(S(=O)(=O)N(C)Cc2ccccc2)c(-c2ccc(F)cc2)c(-c2ccc(F)cc2)n1CC[C@@H](O)C[C@@H](O)CC(=O)[O-].[Na+]
IC50: 550 nM
//
structure smiles: CC(C)c1c(S(=O)(=O)Nc2ccccc2)c(-c2ccc(F)cc2)c(-c2ccc(F)cc2)n1CC[C@@H](O)C[C@@H](O)CC(=O)[O-].[Na+]
IC50: 45 nM

Here is another compound to look at.
INPUT: # input compound: CC(C)c1c(S(=O)(=O)N(C)C)c(-c2ccc(F)cc2)c(-c2ccc(F)cc2)n1CC[C@@H](O)C[C@@H](O)CC(=O)[O-].[Na+] ; wanted: its IC50
OUTPUT: 1400 nM

====

Quick list: IC50 per entry.
- Tested on: L6
- experiment summary: Inhibition of cholesterol synthesis in rat L6 myocyte
- Type: functional, cell-based
Returns: string containing the number followed by the unit.

Answered examples (3):
structure smiles: CC(C)c1c(S(=O)(=O)Nc2cccc(O)c2)c(-c2ccc(F)cc2)c(-c2ccc(F)cc2)n1CC[C@@H](O)C[C@@H](O)CC(=O)[O-].[Na+]
IC50: 2.5 µM
//
structure smiles: CC(C)c1c(S(=O)(=O)N2CCCC2)c(-c2ccccc2)c(-c2ccc(F)cc2)n1CC[C@@H](O)C[C@@H](O)CC(=O)[O-].[Na+]
IC50: 5.2 µM
//
structure smiles: CC(C)c1c(S(=O)(=O)Nc2ccc(S(N)(=O)=O)cc2)c(-c2ccc(F)cc2)c(-c2ccc(F)cc2)n1CC[C@@H](O)C[C@@H](O)CC(=O)[O-].[Na+]
IC50: 4.38 µM

INPUT: # input molecule: CC(C)c1c(S(=O)(=O)Nc2ccc(F)cc2)c(-c2ccc(F)cc2)c(-c2ccc(F)cc2)n1CC[C@@H](O)C[C@@H](O)CC(=O)[O-].[Na+] ; wanted: its IC50
OUTPUT: 0.06 µM

====

- measurement target: 3-hydroxy-3-methylglutaryl-coenzyme A reductase (Rattus norvegicus)
- Sequence (P51639 whole entry): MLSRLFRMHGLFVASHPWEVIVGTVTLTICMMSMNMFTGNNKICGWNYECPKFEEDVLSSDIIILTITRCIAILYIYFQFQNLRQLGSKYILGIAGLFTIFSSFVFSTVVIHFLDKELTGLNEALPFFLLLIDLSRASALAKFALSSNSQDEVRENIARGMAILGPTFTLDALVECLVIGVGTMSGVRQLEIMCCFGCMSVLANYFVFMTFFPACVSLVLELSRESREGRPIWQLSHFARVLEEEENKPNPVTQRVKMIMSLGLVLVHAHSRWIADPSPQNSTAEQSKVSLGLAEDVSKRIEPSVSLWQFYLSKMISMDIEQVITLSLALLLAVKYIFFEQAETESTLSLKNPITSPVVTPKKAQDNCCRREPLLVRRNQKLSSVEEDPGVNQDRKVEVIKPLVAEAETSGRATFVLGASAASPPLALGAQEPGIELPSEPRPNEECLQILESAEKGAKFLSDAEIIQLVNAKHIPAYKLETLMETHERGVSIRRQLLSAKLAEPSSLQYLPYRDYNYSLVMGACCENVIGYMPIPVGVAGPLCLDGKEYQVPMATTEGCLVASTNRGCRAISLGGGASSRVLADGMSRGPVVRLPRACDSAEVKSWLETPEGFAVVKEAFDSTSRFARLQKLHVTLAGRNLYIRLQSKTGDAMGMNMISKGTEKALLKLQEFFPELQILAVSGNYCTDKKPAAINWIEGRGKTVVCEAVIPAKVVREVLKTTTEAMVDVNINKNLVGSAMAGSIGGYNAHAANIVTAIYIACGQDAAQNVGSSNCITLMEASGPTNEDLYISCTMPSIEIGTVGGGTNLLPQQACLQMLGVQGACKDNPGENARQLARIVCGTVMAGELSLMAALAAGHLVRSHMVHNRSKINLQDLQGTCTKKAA
Quick list: IC50 per entry.
Entry rule: numbers only, all in nM.

structure smiles: CC(C)c1c(S(=O)(=O)N2CCc3ccccc3C2)c(-c2ccc(F)cc2)c(-c2ccc(F)cc2)n1CC[C@@H](O)C[C@@H](O)CC(=O)[O-].[Na+]
outcome measure: IC50
result number: 8.4

INPUT: # input compound: CC(C)c1c(S(=O)(=O)N2CCCCC2)c(-c2ccccc2)c(-c2ccc(F)cc2)n1CC[C@@H](O)C[C@@H](O)CC(=O)[O-].[Na+] ; wanted: its IC50
OUTPUT: 2.9

INPUT: # input compound: CC(C)c1c(S(=O)(=O)N(C)Cc2ccccc2)c(-c2ccccc2)c(-c2ccc(F)cc2)n1CC[C@@H](O)C[C@@H](O)CC(=O)[O-].[Na+] ; wanted: its IC50
OUTPUT: 8.5

INPUT: # input compound: CC(C)c1c(S(=O)(=O)N(C)C)c(-c2ccccc2)c(-c2ccc(F)cc2)n1CC[C@@H](O)C[C@@H](O)CC(=O)[O-].[Na+] ; wanted: its IC50
OUTPUT: 6.5

INPUT: # input compound: CC(C)c1c(S(=O)(=O)Nc2cccc(C(N)=O)c2)c(-c2ccc(F)cc2)c(-c2ccc(F)cc2)n1CC[C@@H](O)C[C@@H](O)CC(=O)[O-].[Na+] ; wanted: its IC50
OUTPUT: 18

INPUT: # input compound: CC(C)c1c(S(=O)(=O)Nc2ccccc2)c(-c2ccc(F)cc2)c(-c2ccc(F)cc2)n1CC[C@@H](O)C[C@@H](O)CC(=O)[O-].[Na+] ; wanted: its IC50
OUTPUT: 2

INPUT: # input compound: CC(C)c1c(S(=O)(=O)Nc2ccc(F)cc2)c(-c2ccc(F)cc2)c(-c2ccc(F)cc2)n1CC[C@@H](O)C[C@@H](O)CC(=O)[O-].[Na+] ; wanted: its IC50
OUTPUT: 15

INPUT: # input compound: CC(C)c1c(S(=O)(=O)NCc2ccccc2)c(-c2ccc(F)cc2)c(-c2ccc(F)cc2)n1CC[C@@H](O)C[C@@H](O)CC(=O)[O-].[Na+] ; wanted: its IC50
OUTPUT: 13

INPUT: # input compound: CC(C)c1nc(N(C)S(C)(=O)=O)nc(-c2ccc(F)cc2)c1/C=C/[C@@H](O)C[C@@H](O)CC(=O)O ; wanted: its IC50
OUTPUT: 3.7
